# target.desc: human NaPi-IIb (Homo sapiens, UniProt O95436)
# Sequence (O95436 1-690): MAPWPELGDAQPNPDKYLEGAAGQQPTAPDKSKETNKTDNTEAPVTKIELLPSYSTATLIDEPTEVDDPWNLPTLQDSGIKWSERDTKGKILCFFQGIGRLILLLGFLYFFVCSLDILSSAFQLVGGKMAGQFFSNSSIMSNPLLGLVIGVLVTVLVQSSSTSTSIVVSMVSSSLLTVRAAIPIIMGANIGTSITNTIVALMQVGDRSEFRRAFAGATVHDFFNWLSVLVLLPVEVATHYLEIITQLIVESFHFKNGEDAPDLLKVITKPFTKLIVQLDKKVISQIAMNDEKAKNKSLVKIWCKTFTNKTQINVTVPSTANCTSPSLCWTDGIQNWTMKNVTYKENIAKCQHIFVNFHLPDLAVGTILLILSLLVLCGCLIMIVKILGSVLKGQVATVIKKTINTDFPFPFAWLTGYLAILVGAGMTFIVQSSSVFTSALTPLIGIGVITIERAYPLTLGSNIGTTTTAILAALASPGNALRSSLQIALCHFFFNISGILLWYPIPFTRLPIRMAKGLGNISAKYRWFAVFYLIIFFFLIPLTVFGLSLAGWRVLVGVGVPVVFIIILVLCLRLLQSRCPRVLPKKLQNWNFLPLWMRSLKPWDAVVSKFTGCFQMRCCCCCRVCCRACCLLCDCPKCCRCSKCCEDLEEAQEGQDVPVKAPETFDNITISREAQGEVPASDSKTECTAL
# test.name: 33PO4 uptake inhibition in CHO cells expressing human NaPi-IIb
# assay.conditions: CHO cells transiently expressing human NaPi-IIb, pH 6.5
Consider the following compounds; for each one, report its pIC50.
Scale note: pIC50 = -log10(concentration in M).

Asked: Would you mind telling me what pIC50 value was observed for C[C@]12CCCN1N(Cc1cccc(Cl)c1F)C(=O)C(C(=O)Nc1cc(F)c(Br)c(F)c1)=C2O [Compound 2] ?
Given back: 5.54

Asked: Would you mind telling me what pIC50 value was observed for O=C(Nc1ccc(Cl)cc1C(=O)c1cnn(-c2ccc(Cl)c(C(F)(F)F)c2)c1)c1cccc(CN2CCC(N3CCCCC3)CC2)c1 [Compound 3] ?
Given back: 5.42

Asked: Would you mind telling me what pIC50 value was observed for CCCN([C@H]1CC[C@H](C(=O)[O-])CC1)S(=O)(=O)c1cccc(C(=O)Nc2sc3c(c2C(=O)Nc2ccc(CCCc4ccc(C(=O)[O-])cc4)cc2)CCCC3)c1.[Na+].[Na+] [Compound 4] ?
Given back: 7.51

Asked: Would you mind telling me what pIC50 value was observed for O=c1[nH]nc(Sc2ccc(C(F)(F)F)cn2)n1-c1cc(Cl)c(Cl)cc1C(F)(F)F [Compound 1] ?
Given back: 5.10

Reference source for all entries: patent US20250302833A1
